Molecular target: Pro-neuregulin-1, membrane-bound isoform (Homo sapiens) (UniProt Q02297)
Sequence (Q02297 whole entry, looked up, canonical isoform): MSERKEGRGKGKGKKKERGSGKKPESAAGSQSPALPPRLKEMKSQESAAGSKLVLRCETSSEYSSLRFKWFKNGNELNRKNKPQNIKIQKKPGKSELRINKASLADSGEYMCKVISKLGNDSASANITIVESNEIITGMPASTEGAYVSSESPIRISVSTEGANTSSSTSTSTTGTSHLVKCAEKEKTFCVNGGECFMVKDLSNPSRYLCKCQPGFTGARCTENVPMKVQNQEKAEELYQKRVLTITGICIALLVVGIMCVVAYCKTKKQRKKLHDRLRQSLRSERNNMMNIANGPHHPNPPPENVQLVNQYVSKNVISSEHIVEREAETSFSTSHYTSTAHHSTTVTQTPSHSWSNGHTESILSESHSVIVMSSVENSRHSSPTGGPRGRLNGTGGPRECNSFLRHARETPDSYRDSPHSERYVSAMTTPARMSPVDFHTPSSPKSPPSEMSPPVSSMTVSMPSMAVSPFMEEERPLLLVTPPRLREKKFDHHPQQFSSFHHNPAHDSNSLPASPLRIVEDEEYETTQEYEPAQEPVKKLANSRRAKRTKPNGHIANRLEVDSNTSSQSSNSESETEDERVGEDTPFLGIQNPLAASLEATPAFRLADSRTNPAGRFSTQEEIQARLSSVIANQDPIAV
Assay: small molecules binding neuregulin-1 protein – biochemical, small-molecule microarray, fluorescence 635/667, psychiatric disease protein project, primary screen (AID 1075);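 note: score combines 667 nm spot fluorescence with signal to noise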
Conditions: NRG1 binding, 635 nm fluorescence, higher = more signal
Result Type: composite z-score

Entry under review: "O=C(NC1CC1)[C@@H]1c2ccccc2C(=O)N(Cc2cc(F)cc(C(F)(F)F)c2)[C@H]1c1ccc(CO)cc1" . Reported composite z-score?
-0.13

Next compound: CC=CC(O)C1C=CC2C(=O)N(C)C(=O)C2N1N(c1ccccc1)c1ccccc1 (stereo unspecified)
0.837

Next compound: [N-]=[N+]=Nc1ccccc1C[C@]1(C(=O)NCC(O)CO)N=C(c2ccc(OCCCO)cc2)O[C@H]1c1ccccc1 (stereo partly specified)
1.93

Next compound: CCCCC(O)C1C=CC2C(=O)N(C)C(=O)C2N1N1CCCCC1 (stereo unspecified)
1.12

Next compound: "O=C1O[C@@H](c2ccccc2)[C@@H](c2ccccc2)N2[C@@H](c3ccc(OCCO)cc3)[C@]3(C(=O)Nc4ccc(C#CCCO)cc43)[C@@H](C(=O)NC[C@H](O)c3ccccc3)[C@H]12"
1.01

Next compound: "CN(C)CCCCCCNC(=O)[C@@H]1C[C@@H]2C(=O)N3CCC[C@H]3C(=O)N2[C@@H]1c1ccc(O)cc1"
0.543

Next compound: OCCCC1=CC(C2CC2)N(Cc2cccc(OC(F)(F)F)c2)CC1 (stereo unspecified)
-0.106

Next compound: "COc1ccc([C@H]2OC[C@@H]3CCC(=O)N32)cc1"
0.0194

Next compound: "COCC(=C=CC[C@H](O)c1cccc(OCCO)c1)CCO"
1.12

Next compound: O=C1OCC=C[C@H]2OC34C=CCN(Cn5nnc6ccccc65)C(=O)[C@H]3N(CCCCCO)C(=O)[C@@H]4[C@@H]12 (stereo partly specified)
2.53

Next compound: "COC(=O)c1c(CC[C@@H](CO)NC(=O)NCCc2c[nH]c3ccccc23)oc(C(=O)Cc2ccccc2)c1C(=O)OC"
-0.0379

----------
Please respond with reported z-score for every item in the list.
Assay: inhibition of PAO1 biofilm formation – strain PAO1, LB-PBS medium, absorbance 600 nm, primary screen (AID 1176); note: test concentration not given here
Conditions: P. aeruginosa PAO1 growth/biofilm, A600, 12 h; higher = more signal
Returns: the value as a bare number; no unit string appended.

Entry under review: COc1cc2c(cc1O)C(c1cccs1)N(Cc1ccc([N+](=O)[O-])o1)CC2 (centres undefined) . Reported z-score?
0.723

Next compound: "COc1ccc(C#Cc2ccc3c(c2)[C@]2(C(=O)N3)[C@H](c3ccc(O)cc3)N3[C@H](c4ccccc4)[C@H](c4ccccc4)OC(=O)[C@H]3[C@@H]2C(=O)N2CCc3cc(OC)c(OC)cc3C2)cc1"
1.37

Next compound: "[N-]=[N+]=Nc1ccccc1[C@H]1OC(c2ccc(OCCCO)cc2)=N[C@@]1(CCS(=O)(=O)c1ccccc1)C(=O)NCc1ccccc1"
0.441

Next compound: "O=C1C[C@@](C(=O)NCc2ccccc2)(c2ccc([N+](=O)[O-])cc2)[C@@H](c2ccc(CO)cc2)N1CC12CC3CC(CC(C3)C1)C2"
1.06

----------
Experiment: budding yeast growth changes without added modifier – OD600, strain BY4716, 24 h, basal condition, primary screen (AID 1173)
Details: S. cerevisiae BY4716 growth, OD600, 24 h; higher = more signal, called active from +8 up or from −8 down
Result Type: z-score
Returns: the value as a bare number; no unit string appended.

Entry under review: "O=C1O[C@H](c2ccccc2)[C@H](c2ccccc2)N2[C@H]1[C@@H](C(=O)N1CCN(c3ncccn3)CC1)[C@]1(C(=O)Nc3ccc(C#CC4=CCCCC4)cc31)[C@H]2c1ccccc1OCCO" . Reported z-score?
1.4

Next compound: O=C1NC(=O)C2C1C=CC(C(O)C=Cc1ccc([N+](=O)[O-])cc1)N2Nc1ccc(Cl)cc1Cl (stereo unspecified)
-6.66

Next compound: "O=C1O[C@@H](c2ccccc2)[C@@H](c2ccccc2)N2[C@@H](c3ccccc3OCCO)[C@]3(C(=O)Nc4ccc(C#CC5(O)CCCCCC5)cc43)[C@@H](C(=O)N3CCN(c4ncccn4)CC3)[C@H]12"
1.62

Next compound: "[N-]=[N+]=Nc1ccccc1[C@H]1OC(c2ccc(OCCCO)cc2)=N[C@@]1(CCS(=O)(=O)c1ccccc1)C(=O)NCc1ccccc1"
-0.008

Next compound: N#Cc1ccc(C(O)C2C=CC3C(=O)N(c4ccccc4)C(=O)C3N2Nc2ccccc2F)cc1 (stereo unspecified)
-2.13

Next compound: "COc1ccc([Si](C)(C)[C@@H]2[C@@H](CCn3cc(CCO)nn3)O[C@]3(C(=O)N(Cc4cccc(N5C(=O)c6cccc7cccc5c67)c4)c4ccccc43)[C@H]2C)cc1"
0.348

----------
Test: small molecules captured by biotinylated probe aFGF2 – biochemical, small-molecule microarray, fluorescence 635/667, stem cell growth factor project, primary screen (AID 1067);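 note: measures binding of biotinylated aFGF2 protein to printed compounds on slides; z-score merges feature fluorescence and signal-to-noise across triplicate slides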
Conditions: higher = more signal
// not met strictly below -0.06 in composite z-score; met otherwise

In plain terms: is recorded composite z-score at least -0.06 for "O=C(NC1CC1)[C@@H]1c2ccccc2C(=O)N(C2Cc3ccccc3C2)[C@H]1c1ccc(CO)cc1" ?
not met

Next compound: CCCCN1CC=CC23O[C@@H]4C=CCOC(=O)[C@@H]4[C@H]2C(=O)N(CCCCCCO)[C@@H]3C1=O (stereo not given in full)
not met

Next compound: "CC(C)CNC(=O)[C@@]1(Cc2ccccc2I)c2ccccc2C(=O)N(Cc2ccccc2C(F)(F)F)[C@H]1c1ccc(CO)cc1"
not met

Next compound: "COc1cc(CO)cc(I)c1O[C@H]1C=C(C(=O)NCCO)C[C@@H](N(C(=O)c2cc3ccccc3oc2=O)C2CCCCCC2)[C@@H]1O"
not met

Next compound: "NC(=O)[C@@H]1[C@H]2C(=O)O[C@H](c3ccccc3)[C@H](c3ccccc3)N2[C@H](c2ccc(OCCO)cc2)[C@@]12C(=O)Nc1ccc(C#CC3=CCCCC3)cc12"
not met

Next compound: [N-]=[N+]=NCc1ccccc1C[C@@]1(C(=O)NCC(O)CO)N=C(c2ccc(OCCCO)cc2)O[C@@H]1c1ccccc1 (stereo not given in full)
met

Next compound: "CCCC=C(CCC)[C@@H](NS(=O)(=O)c1ccc(Cl)cc1)c1ccc(C(=O)OC)cc1"
not met

Next compound: O=C1OCCC=C[C@H]2OC34C=CCN(Cn5nnc6ccccc65)C(=O)[C@H]3N(CCO)C(=O)[C@@H]4C12 (stereo not given in full)
not met

Next compound: "COc1ccc([Si](C)(C)[C@H]2[C@H](CCO)O[C@@]3(C(=O)N(Cc4ccccc4)c4ccc(N5CCCCC5=O)cc43)[C@@H]2C)cc1"
met

Next compound: CCCCN1CC=CC23O[C@@H]4/C=C\CCCOC(=O)C4[C@H]2C(=O)N(CCCCCO)[C@@H]3C1=O (stereo not given in full)
not met

Next compound: "O=C(CS)NCCCCCNC(=O)[C@H]1C[C@H]2C(=O)NCC(=O)N2[C@H]1c1ccc(O)cc1"
not met

Next compound: "COC(=O)[C@@]1(Cc2ccc(F)cc2)[C@H]2c3cc(C(=O)N(C)C)n(Cc4ccc(C)o4)c3C[C@H]2CN1C(=O)c1ccccc1"
met

Next compound: CCN(CC)c1ccc(N2CC=CC34O[C@@H]5C=CCOC(=O)[C@@H]5[C@H]3C(=O)N(CCCCCCO)[C@@H]4C2=O)cc1 (stereo not given in full)
not met

Next compound: "COc1cc(CO)cc(I)c1O[C@H]1C=C(C(=O)NCCO)C[C@@H](NC[C@@H]2CCCO2)[C@@H]1O"
not met

Next compound: "COC(=O)c1c(CC[C@@H](CO)NC(=O)N[C@@H](Cc2ccccc2)Cn2cc(-c3ccccn3)nn2)oc(C(=O)N2CCOCC2)c1C(=O)OC"
met

----------
Test system: Chordin-like protein 2 (CHRDL2)
Assay: compounds binding chordin-like 2 – biochemical, small-molecule microarray, 635 nm fluorescence, primary screen (AID 1126);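 note: printed compound slides probed with Chrdl2 protein at 4 µg/mL for 1 h at 4 C; score merges 667 nm emission intensity with signal to noise over three replicate slides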
Settings: fluorescence 635 nm, higher = more signal
Result Type: composite z-score
Returns: the value as a bare number; no unit string appended.

Entry under review: "NC(=O)[C@@]1(Cc2ccccc2)N=C(c2ccc(OCCCO)cc2)O[C@H]1c1ccccc1" . Reported composite z-score?
-0.643

Next molecule: "CC[C@@H]1C=C(C(=O)O)[C@H](c2cccc3ccccc23)N1S(=O)(=O)c1ccc(C)cc1"
0.0837

Next molecule: "COCCOC(=O)N1C(=O)[C@@]2(c3cc(C#CCCO)ccc31)[C@H](c1ccc(OCCO)cc1)N1[C@H](c3ccccc3)[C@H](c3ccccc3)OC(=O)[C@H]1[C@@H]2C(N)=O"
0.437

Next molecule: "CCOC(=O)C1=CC[C@@H](c2ccccc2)N(S(=O)(=O)c2ccc(C)cc2)[C@H]1c1ccc(CC)cc1"
-0.0671

Next molecule: "COC(=O)[C@]1(CCC(=O)OC(C)(C)C)N=C(c2ccc(OCCCO)cc2)O[C@@H]1c1ccccc1"
-0.483

Next molecule: "CCOC(=O)C[C@H]1[C@H](OC(=O)c2cc3ccccc3oc2=O)[C@@H](NC(=O)CC(C)C)c2cc(OCCCO)ccc2N1C(=O)c1ccccc1"
0.202

Next molecule: [N-]=[N+]=NCc1ccccc1C[C@@]1(C(=O)NCC(O)CO)N=C(c2ccc(OCCCO)cc2)O[C@@H]1c1ccccc1 (stereo partly drawn)
-0.247

Next molecule: C=CC1c2cc(O)c(OC)cc2CCN1Cc1cccc(OC(F)(F)F)c1 (stereo not drawn)
0.44
